In this section we review reported self-cleavage kobs at 2500 uM GlcN6P values for a set of variants.
B1: glmS ribozyme (parent)
chain: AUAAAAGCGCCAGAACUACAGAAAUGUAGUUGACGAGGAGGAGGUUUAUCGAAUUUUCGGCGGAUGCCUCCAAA

# Variants of: B1
# assay_info: self-cleavage kobs at 2500 uM GlcN6P; higher = faster cleavage; RNA array
# details: with glucosamine-6-phosphate
Fewer inactive variants are shown than the library holds.
Write down the numeric answer in s⁻¹ and omit the unit.

Recorded results for 4 variants are shown here.
# sequence, quantity_kind, readout_value
data = [
    ("AUAAAAGCGCCAGAACUACAGAAAUGUAGUUGACGAGGAGGAGGUGUAGCGAAUUUUCGGCGGAUGCCUCCAAA [U46G U49G]", "self-cleavage kobs at 2500 uM GlcN6P", "8.04e-05"),
    ("AUAAAAGCGCCAGAACUACAGAAAUGUAGUCGACGAGGAGGAGGUUUAUCGAAUAUUCGGCGCAUGCCGCCAAA [U31C U55A G63C U69G]", "self-cleavage kobs at 2500 uM GlcN6P", 0.000106),
    ("AUAAAAGCGCCAGAACUACAGAAAUGUAGUUGACGAGGAGGAGGUUUCUCGAAUUUUCGGCGGAUGCCUUCAAA [A48C C70U]", "self-cleavage kobs at 2500 uM GlcN6P", 0.000254),
    ("AUAAAAGCGCCAAUACUACAGAAAUGUAGUUGACGAGGAGGAGGUUUAUCGAAUUAUCGGCGGAUGCCUCCAAA [G13A A14U U56A]", "self-cleavage kobs at 2500 uM GlcN6P", 0.000412),
]

Input: Give the measured self-cleavage kobs at 2500 uM GlcN6P of AUAAAAGCGCCAGAACUACAGAAAUGUAGUUGAGGAGGAGGAGGUUGAUCGAAUUUUAGGCGGAUGCAUCCAAA [C34G U47G C58A C68A] .
Output: 6.86e-05

Input: Give the measured self-cleavage kobs at 2500 uM GlcN6P of AUAAAAGCGCUAGAACUACAGAAAUGUAGUUGACGAGGAGGAGGUUUAUCGAAUUUUCGGGGGAUGACUCCAAA [C11U C61G C67A] .
Output: 0.000446

Input: Give the measured self-cleavage kobs at 2500 uM GlcN6P of AUAAAAGCGCCAGAACUACAGAAAUGUAGUUGACGCGGAGGAGGUUUAUCUAAUUUUCGGCGGAUGCCUGCAAA [A36C G51U C70G] .
Output: 4.65e-05

Input: Give the measured self-cleavage kobs at 2500 uM GlcN6P of AUAAAAGCGCCAGAACUACAGAAAUGUAGUUGACGAGGAUGAGGUUCAUCGAAUUUUCGGCGGAUGCCUCCAAA [G40U U47C] .
Output: 0.000958

Input: Give the measured self-cleavage kobs at 2500 uM GlcN6P of AUAAAUGCGCCAGAAUUACAGAAAUGUAGUUGACGAGGAGGAGGUUUAUCGAGUUUUCGGCGGAUGCCUCGAAA [A6U C16U A53G C71G] .
Output: 5.25e-05

Input: Give the measured self-cleavage kobs at 2500 uM GlcN6P of AUAAAAGCGCCGGAACUACAGAAAUGUAGUUGACGAGGAGGAGGUUUAUCGAAUUUUAGGCGGAUGCCUCCAAA [A12G C58A] .
Output: 0.000245

Input: Give the measured self-cleavage kobs at 2500 uM GlcN6P of AUAAAAGCGCCAUAACUACAGAAAUGUAGUUGACGAGGAGGAGGUUUAUCGAAUUUUCGGCGGAUGCCACCAAA [G13U U69A] .
Output: 6.1e-05

Input: Give the measured self-cleavage kobs at 2500 uM GlcN6P of AUAAAAGCGCCAGAACUACAGAAAUGUAGUUGACGAGGAGUAGGUUUAUCGAAUUUUCGGCGGAUGCCUUCAAA [G41U C70U] .
Output: 0.00131
